Sequence of the target: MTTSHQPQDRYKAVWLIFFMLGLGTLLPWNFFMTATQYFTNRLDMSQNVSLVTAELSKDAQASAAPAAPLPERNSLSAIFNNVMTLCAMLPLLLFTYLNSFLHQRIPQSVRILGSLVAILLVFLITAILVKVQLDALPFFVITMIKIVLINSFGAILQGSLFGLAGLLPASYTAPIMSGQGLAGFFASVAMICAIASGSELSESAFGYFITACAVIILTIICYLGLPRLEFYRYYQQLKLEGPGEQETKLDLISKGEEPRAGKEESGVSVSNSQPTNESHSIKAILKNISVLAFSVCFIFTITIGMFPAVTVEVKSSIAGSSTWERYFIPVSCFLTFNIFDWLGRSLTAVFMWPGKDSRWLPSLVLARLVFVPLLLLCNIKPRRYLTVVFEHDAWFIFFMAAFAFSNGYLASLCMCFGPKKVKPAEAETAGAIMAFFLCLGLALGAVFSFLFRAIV
Consider the cut-off 200 nM. If the recorded Ki is strictly smaller, the label is yes; if not, the label is no.

1) O=[N+]([O-])c1ccc(CSc2ncnc3c2ncn3Cc2ccccc2-c2ccccc2F)cc1 :: yes
2) Cc1ccc(Cn2cnc3c(SCc4ccc([N+](=O)[O-])cc4)ncnc32)cc1 :: no
3) COc1cccc(-c2ccccc2Cn2cnc3c(SCc4ccc([N+](=O)[O-])cc4)ncnc32)c1 :: no
4) O=[N+]([O-])c1ccc(CSc2ncnc3c2ncn3Cc2cccc(O)c2)cc1 :: yes

====

pKi overview
biological target: UniProtKB Q99808; test: Inhibition of [3H]NBTI binding to nucleoside transport protein of human erythrocyte membrane
pKi: −log10 of the molar value.
Quantity Measured: pKi

1. Nc1ccccc1Cn1cnc2c(SCc3ccc([N+](=O)[O-])cc3)ncnc21 :: 6.91
2. O=[N+]([O-])c1ccc(CSc2ncnc3c2ncn3Cc2ccccc2-c2cccs2)cc1 :: 6.89
3. O=[N+]([O-])c1ccc(CSc2ncnc3c2ncn3Cc2cc(F)ccc2F)cc1 :: 5.79
4. COc1ccc(-c2ccccc2Cn2cnc3c(SCc4ccc([N+](=O)[O-])cc4)ncnc32)cc1 :: 6.98
5. CC(C)(C)OC(=O)Nc1ccccc1Cn1cnc2c(SCc3ccc([N+](=O)[O-])cc3)ncnc21 :: 6.37
6. O=[N+]([O-])c1ccc(CSc2ncnc3c2ncn3CCc2ccccc2)cc1 :: 5.66
7. COc1ccccc1Cn1cnc2c(SCc3ccc([N+](=O)[O-])cc3)ncnc21 :: 6.96
8. O=[N+]([O-])c1ccc(CSc2ncnc3c2ncn3Cc2ccc([N+](=O)[O-])cc2)cc1 :: 6.70
9. O=[N+]([O-])c1ccc(CSc2ncnc3c2ncn3CCCc2ccccc2)cc1 :: 6.31

====

Molecular target: Equilibrative nucleoside transporter 1 (Homo sapiens, UniProt Q99808)
Sequence (Q99808 whole entry): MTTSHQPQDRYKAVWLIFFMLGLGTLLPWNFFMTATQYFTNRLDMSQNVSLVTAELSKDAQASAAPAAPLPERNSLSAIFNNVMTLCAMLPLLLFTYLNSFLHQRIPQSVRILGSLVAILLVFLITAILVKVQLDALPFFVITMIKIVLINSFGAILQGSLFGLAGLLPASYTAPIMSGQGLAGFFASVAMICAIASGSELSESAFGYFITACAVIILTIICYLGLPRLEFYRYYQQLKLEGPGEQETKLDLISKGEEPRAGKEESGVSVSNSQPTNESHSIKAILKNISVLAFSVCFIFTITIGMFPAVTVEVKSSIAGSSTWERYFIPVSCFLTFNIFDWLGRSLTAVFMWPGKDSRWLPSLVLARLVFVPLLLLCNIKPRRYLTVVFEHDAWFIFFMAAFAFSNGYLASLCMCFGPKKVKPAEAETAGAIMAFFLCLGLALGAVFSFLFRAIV
pKi: −log10 of the molar value.
Quantity Measured: pKi

1. O=[N+]([O-])c1ccc(CSc2ncnc3c2ncn3Cc2ccncc2)cc1 :: 5.66
2. O=[N+]([O-])c1ccc(CSc2ncnc3c2ncn3Cc2ccc(F)cc2)cc1 :: 5.48
3. O=[N+]([O-])c1ccc(CSc2ncnc3c2ncn3Cc2ccc(Cl)cc2)cc1 :: 6.63
4. O=[N+]([O-])c1ccc(CSc2ncnc3c2ncn3Cc2ccccc2-c2ccc(F)cc2)cc1 :: 7.03
5. COc1ccc(Cn2cnc3c(SCc4ccc([N+](=O)[O-])cc4)ncnc32)cc1 :: 6.25
6. O=[N+]([O-])c1ccc(CSc2ncnc3c2ncn3Cc2ccc(F)cc2F)cc1 :: 5.31
7. COc1cccc(Cn2cnc3c(SCc4ccc([N+](=O)[O-])cc4)ncnc32)c1 :: 6.58
8. O=[N+]([O-])c1ccc(CSc2ncnc3c2ncn3Cc2ccccc2-c2ccc(O)cc2)cc1 :: 6.81
9. COc1ccccc1-c1ccccc1Cn1cnc2c(SCc3ccc([N+](=O)[O-])cc3)ncnc21 :: 6.65
